Biological target: T1, human Trop-2 expressed on cell surface (human, UniProt P09758 27-323)
T1 sequence (looked up): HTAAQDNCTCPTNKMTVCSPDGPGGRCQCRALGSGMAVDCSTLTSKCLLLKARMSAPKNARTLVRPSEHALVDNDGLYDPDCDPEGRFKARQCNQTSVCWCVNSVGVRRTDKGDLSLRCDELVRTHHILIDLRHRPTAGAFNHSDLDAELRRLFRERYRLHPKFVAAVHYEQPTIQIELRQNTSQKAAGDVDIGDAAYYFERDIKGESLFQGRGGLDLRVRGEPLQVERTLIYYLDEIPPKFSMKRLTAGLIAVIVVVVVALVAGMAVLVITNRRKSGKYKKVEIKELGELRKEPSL
Assay: cell-based or functional assay
readout.label: Internalization %, MDA-MB-231, 0.5 µg/ml, 2 h
A bare number is not enough; add the unit after it.

72F12 (antibody, V domains shown, Rabbit-derived clone; LEM construct: VH + rabbit IgG CH1 + human IgG1 CH2-CH3) VH: QEQLKESGGGLVQPGGSLKLSCKASGFDFNNYGVSWVRQAPGKGLEWIAYIYPAFHNTYYATWVNGRFTISSHNAQNTLYLQLNSLTAADTATYFCARDAGSVDYNFNLWGPGTLVTVSS VL: DVVMTQTPASVEVAVGGTVTIKCQASKNIDSNLAWYQQKPGQPPKQLIYAASTLASGVSSRFSGSGYGAEFTLTISGVECADAATYYCQQALTIGNVDNPFGGGSEVVVK
42%

// next item, Internalization %, MDA-MB-231, 0.5 µg/ml, 2 h requested
Please indicate Internalization %, MDA-MB-231, 0.5 µg/ml, 2 h recorded for 9D7-2 (antibody, V domains shown) VH: QSLEESGGDLVQPGASLTLTCKASGFDLNNYSILWVRQAPGKGLEWIGSIYISGGSTYYANWAKGRFAISKTSSTTVTLQMTSLTAADTATYFCARDDGTASYYLNLWGPGTLVTVSS VL: YDMTQTPASVSEPVGGTVTIKCQASEDIYKLLAWYQQKPGQPPKLLIYAASDLESGVPSRFKGRGSGTDYTLTISDLEAADAATYYCQQAYTIGNIDNSFGGGTEVVVK
49%
